# Test system: KM12
# protocol.description: NCI tumour cell line growth inhibition, 48 h
Calls of active or inactive are those of the source. No stated cut-off is given here; in the data, active = GI50 up to about 1.1 µM and inactive = higher.
Could you please report measured GI50 for the items listed next?

Which GI50 value belongs to Cc1ccc2c(C3Cc4ccccc4N3C(=O)/C=C\C(=O)O)c(C)[nH]c2c1 (stereo not given) ?
35.2 µM (inactive)

// query: CC(=O)OCC(OC(C)=O)C(OC(C)=O)C(OC(C)=O)C(/C=N\Nc1nc2ccccc2c(=O)[nH]1)=N/Nc1nc2ccccc2c(=O)[nH]1 (stereo not given)
97.7 µM (inactive)

Then `Cc1cccc2nc3cccc(C(=O)NCCC[N+](C)(CCCNC(=O)c4cccc5nc6cccc(C)c6nc45)Cc4ccc([N+](=O)[O-])n4C)c3nc12` ?
2.26 µM (inactive)

And what about the compound `COc1ccc(N2/C(=N/c3ccccc3)SC(=N/S(=O)(=O)c3ccccc3)/C2=N\S(=O)(=O)c2ccccc2)cc1` ?
38.8 µM (inactive)

Likewise for COC(=O)C(CC=O)C(=O)C(=O)Nc1cccc(C(F)(F)F)c1 (stereo not given) ?
> 100 µM (inactive)

----------
# Tested on: RPMI-8226
# protocol.description: NCI tumour cell line growth inhibition, 48 h
Calls of active or inactive are those of the source. Cut-off read from the data, not from the text of the source: active = GI50 up to about 1.1 µM and inactive = higher.
// allowed return values: active, inactive

Record lookup: outcome of this test for `CC1(C)C=Cc2c(cc(O)c3c(=O)c4cc(Cl)ccc4[nH]c23)O1` ?
inactive

Lookup CC(=O)Nc1ccc(/C=C/C(=O)N2CC(CCl)c3c2cc(N)c2ccccc32)cc1 (stereo not drawn)
active

Now consider CC1(C)CNC(=O)C2(/C=N/C(C)(C)CNC(=O)C3(/C=N/1)CCCO3)CCCO2 (stereo not drawn) .
inactive

----------
Please go through the items and note down their GI50.
# Test system: HT-29
# protocol.description: NCI tumour cell line growth inhibition, 48 h
Calls of active or inactive are those of the source. Cut-off read from the data, not from the text of the source: active = GI50 up to about 1.1 µM and inactive = higher.

Give the measured GI50 of `COc1ccc2c(c1)c(=O)c1c(NCCNCCO)ccc3c(=O)n(CCN(C)C)c(=O)n2c31` .
0.0352 µM (active)

Okay, and Cc1ccc([S+]([O-])(=Nc2ccccc2)C(C(C)C)C(C)(C)Cl)cc1 (configuration not stated) ?
17.1 µM (inactive)

# repeat for CC(C)=CCc1c(O)c(CC=C(C)C)c2oc3c(c(=O)c2c1O)C(C=C(C)C)Oc1cc(O)ccc1-3 (configuration not stated)
10.3 µM (inactive)

Now this one: `Nc1nc(Nc2ccccc2)sc1C(=O)c1cccs1`
5.32 µM (inactive)

Same for `COc1cc2c(cc1OC)-c1c(cc(OC)c(OC)c1OC)C2=O`
> 100 µM (inactive)

`C=CCN1CCN([C@H](c2ccc(C(=O)N(CC)CC)cc2)c2cccc(OC)c2)CC1` ?
> 25 µM (inactive)

Also `N#CCc1nc2c(s1)C(=O)c1ccccc1C2=O` , if possible.
22.8 µM (inactive)

----------
# System: DLD-1
# protocol.description: NCI tumour cell line growth inhibition, 48 h
The source made the active and inactive calls. No stated cut-off is given here; in the data, active = GI50 up to about 1.1 µM and inactive = higher.
observed.property: GI50

Param item = `O=C(O)/C=C/c1c[nH]cn1` ; retrieve measured GI50.
> 500 µM (inactive)

Another compound to look at: `COc1cc(O)c2c(c1)O[C@@H]1OCC[C@H]21`
> 100 µM (inactive)

Now consider CN1OC2OC(=O)OC2[C@H]1[C@H]1O[C@H](c2ccccc2)OC1(C)c1cc(OC(=O)c2ccccc2)ccc1OC(=O)c1ccccc1 (stereo partly drawn) .
> 50 µM (inactive)

For `Cc1cccc(C)c1NC(=O)C(=O)C1C(=O)NC(=O)NC1=O` then?
> 100 µM (inactive)

Try the compound COC(=O)C(CC=O)C(=O)C(=O)Nc1cccc(C(F)(F)F)c1 (stereo not drawn)
> 100 µM (inactive)

Also need `Cc1cc(C(=O)N2CCN(Cc3ccccc3)CC2)c(C)o1` , thanks.
> 100 µM (inactive)

And then `CC(=O)N(CCN1C(=O)c2ccccc2C1=O)CCN1C(=O)c2ccccc2C1=O` , what is it?
> 100 µM (inactive)

Again, but for COC(=O)C1CC(OC(C)=O)C=C2C(=O)CCC21 (stereo not drawn)
14.5 µM (inactive)
